Data provenance is patent US20040138301A1.

- System: HEP-G2 cells
- assayProcedure: cells
- experimentalConditions: Homo sapiens, HepG2, read-out: HEP-G2 Emax (% of FCCP), HEP-G2 cells, maximal stimulation relative to FCCP
parameterMeasured: Emax (%)
Dear colleague, please return just the value in %, with no unit written.

# annotated cases, reported Emax shown
N#CC(C#N)=Cc1c[nH]c2ccc(Cl)cc12; 60
Cc1c(Br)cc(C(C)(C)C)c(O)c1C(=O)Nc1c(Cl)cc([N+](=O)[O-])cc1Cl; 99
Cc1cc(C(=O)Nc2ccc([N+](=O)[O-])cc2Cl)c(O)c(C(C)(C)C)c1; 96
Cc1c(Br)cc(C(C)(C)C)c(O)c1C(=O)Nc1cc(C(F)(F)F)ccc1Cl; 95

GET /values?readout=Emax&system=HEP-G2 cells&item= O=C(Nc1cc(C(F)(F)F)cc(C(F)(F)F)c1)c1cc(F)cc(C(F)(F)F)c1 105

Record CC(C)(C)c1cc(C=C2C(=O)c3ccccc3C2=O)cc(C(C)(C)C)c1O : what is its Emax with HEP-G2 cells? 80

Query the reported Emax for HEP-G2 cells; item: CC(C)(C)c1cc(C[P+](c2ccccc2)(c2ccccc2)c2ccccc2)cc(C(C)(C)C)c1O 75

Query Emax on HEP-G2 cells for Cc1c(Br)cc(C(C)(C)C)c(O)c1C(=O)Nc1cc(C(F)(F)F)ccc1C(F)(F)F 105

====

- Tested on: FSK-4 cells
- assayProcedure: Assay (IV): Glucose utilisation in FSK-4 cells
- Type: cell-based
- experimentalConditions: FSK-4 cells, maximal efficacy relative to FCCP; read-out: FSK4 Emax (% of FCCP)
parameterMeasured: Emax (%)
Just the number please, in %, no unit attached.

Illustrative cases are given below, each with its answer.
CCOP(=O)(OCC)/C(C#N)=C\c1cc(C(C)(C)C)c(O)c(C(C)(C)C)c1 [Example 76]; 150
Cc1c(Br)cc(C(C)(C)C)c(O)c1C(=O)Nc1ccc(Cl)cc1Cl [Example 53]; 95
N#CC(C#N)=NNc1ccc(OC(F)(F)F)cc1 [Example 27, reference compound]; 100
CC(C)(C)c1cc(/C=C(\C#N)c2ccc(C(F)(F)F)cc2)cc(C(C)(C)C)c1O [Example 81]; 140
N#CC(C#N)=Cc1c(-c2ccc(Cl)cc2)[nH]c2ccccc12 [Example 19]; 55

May I ask what Emax has been recorded for CCOC(=O)C(=Cc1cc(C(C)(C)C)c(O)c(C(C)(C)C)c1)C(=O)OCC [Example 16] ? 45

# lookup: Emax of Cc1c(Br)cc(C(C)(C)C)c(O)c1C(=O)Nc1ccc(C#N)cc1Cl [Example 51] 105

I would be grateful if you could share the reported Emax for CC(C)(C)c1cc(Br)cc(C(=O)Nc2ccc(C#N)cc2Cl)c1O [Example 94] . 90

Which Emax reading was recorded for the compound CCOC(=O)/C(=C/c1cc(C(C)(C)C)c(O)c(C(C)(C)C)c1)C(C)=O [Example 69] ? 40

Emax for Cc1c(Br)cc(C(C)(C)C)c(O)c1C(=O)Nc1ccccc1C(F)(F)F [Example 96] ? 40

What Emax value was documented for this compound, CCOC(=O)/C(C#N)=C/c1cc(C(C)(C)C)c(O)c(C(C)(C)C)c1 [Example 15] ? 65

Report Emax for Cc1cc(C(C#N)c2ccc(Cl)cc2)c(Cl)cc1NC(=O)c1c(C)c(Br)cc(C(C)(C)C)c1O (stereo not shown) [Example 56] please. 105

Find the recorded Emax belonging to CC(C)(C)c1cc(/C=C(\C#N)C(=O)Nc2ccc(Cl)cc2)cc(C(C)(C)C)c1O [Example 83] and report it. 120

Query (compound): N#CC(C#N)=Cc1c[nH]c2ccc(Cl)cc12 [Example 30] ; field requested: Emax 100

Quick check: Emax of CCOC(=O)/C(C#N)=C(/C)c1cc(C(C)(C)C)c(O)c(C(C)(C)C)c1 [Example 82] ? 90

Could you tell me which Emax is on file for Cc1c(Br)cc(C(C)(C)C)c(O)c1C(=O)Nc1ccc([N+](=O)[O-])cc1Cl [Example 37] ? 110

====

- System: HEP-G2 cells
- assayProcedure: cells
- experimentalConditions: Homo sapiens, HepG2, 3 h, read-out: HEP-G2 EC50, HEP-G2 cells, glucose utilisation, 3 hours incubation
Entries and their pEC50 values follow.
Note on units: pEC50 is unitless, being -log10 of a concentration expressed in mol/L.

A selection of reference data follows.
CC(C)(C)c1cc(C[P+](c2ccccc2)(c2ccccc2)c2ccccc2)cc(C(C)(C)C)c1O [Example 11]; 6.15
Cc1c(Cl)cc(C(C)(C)C)c(O)c1C(=O)Nc1ccc([N+](=O)[O-])c(C(F)(F)F)c1 [Example 49]; 6.02
Cc1c(Cl)cc(C(C)(C)C)c(O)c1C(=O)Nc1ccc([N+](=O)[O-])cc1Cl [Example 5]; 7.22

Switching to the query record.
Give its pEC50 value. Item: Cc1c(Br)cc(C(C)(C)C)c(O)c1C(=O)Nc1c(Cl)cc(Cl)cc1C(F)(F)F [Example 62] 5.64

====

Measured Emax of individual entries
- Test system: HEP-G2 cells
- assayProcedure: cells
- experimentalConditions: Homo sapiens, HepG2, read-out: HEP-G2 Emax (% of FCCP), HEP-G2 cells, maximal stimulation relative to FCCP
# value in %; strip the unit string

Guide cases for Emax, answers given:
N#CC(C#N)=NNc1ccc(OC(F)(F)F)cc1 [Example 27, reference compound]; 100
CCOC(=O)/C(C#N)=C/c1cc(C(C)(C)C)c(O)c(C(C)(C)C)c1 [Example 15]; 100
O=C(Nc1ccc([N+](=O)[O-])c(C(F)(F)F)c1)c1cc(F)cc(C(F)(F)F)c1 [Example 65]; 100
CC(C)(C)c1cc(/C=C(\C#N)c2ccc([N+](=O)[O-])cc2)cc(C(C)(C)C)c1O [Example 77]; 100
N#Cc1cc(NC(=O)c2cccc(C(F)(F)F)c2)ccc1Sc1ccccc1 [Example 24]; 65
CC(C)(C)c1cc(/C=C(\C#N)c2ccncc2)cc(C(C)(C)C)c1O [Example 78]; 80
O=C(Nc1cc(C(F)(F)F)cc(C(F)(F)F)c1)c1ccc(C(F)(F)F)c(F)c1 [Example 66]; 95
N#CC(C#N)=Cc1c(-c2ccc(Cl)cc2)[nH]c2ccccc12 [Example 19]; 100
Cc1c(Cl)cc(C(C)(C)C)c(O)c1C(=O)Nc1ccc([N+](=O)[O-])c(C(F)(F)F)c1 [Example 49]; 105
CC(=O)c1ccc(O)c([N+](=O)[O-])c1 [Example 3, 4-Hydroxy-3-Nitroacetophenone]; 75

Could you tell me which Emax is on file for Cc1c(Cl)cc(C(C)(C)C)c(O)c1C(=O)Nc1ccc([N+](=O)[O-])cc1Cl [Example 5] ? 95

Give the measured Emax of Cc1c(Cl)cc(C(C)(C)C)c(O)c1C(=O)Nc1ccc([N+](=O)[O-])cc1C(F)(F)F [Example 50] . 82

# query: Emax of entry Cc1c(Br)cc(C(C)(C)C)c(O)c1C(=O)Nc1ccc([N+](=O)[O-])cc1C(F)(F)F [Example 58] 100

What value of measured Emax is listed for Cc1c(Cl)cc(C(C)(C)C)c(O)c1C(=O)Nc1ccc(Cl)c(C(F)(F)F)c1 [Example 42] ? 89

Emax for Cc1cc(C)c2[nH]cc(C=C(C#N)C#N)c2c1 [Example 28] ? 35

Quick one: Emax for Clc1ccc(-c2cc3ccccc3[nH]2)cc1 [Example 20, 2-(4-Chlorophenyl)-Indole] ? 55

Report Emax for Cc1ccc2[nH]cc(C=C(C#N)C#N)c2c1 [Example 31] please. 0

====

Attribute: EC (Emax)
- System: HEP-G2 cells
- assayProcedure: cells
- experimentalConditions: Homo sapiens, HepG2, read-out: HEP-G2 Emax (μM), HEP-G2 cells, concentration at which Emax is achieved (CEmax)
I only need the number, in µM, no unit after it.

CC(C)(C)c1cc(C(=O)Nc2ccc([N+](=O)[O-])cc2Cl)c(O)c(C(C)(C)C)c1; 3

Which measured EC (Emax) value corresponds to Cc1c(Cl)cc(C(C)(C)C)c(O)c1C(=O)Nc1cc(C(F)(F)F)ccc1F ? 10

Would you mind telling me what EC (Emax) value was observed for CCOC(=O)/C(=C/c1cc(C(C)(C)C)c(O)c(C(C)(C)C)c1)C(C)=O ? 300

Record request: EC (Emax) value, item Cc1c(Br)cc(C(C)(C)C)c(O)c1C(=O)Nc1ccc(C#N)cc1Cl 3

====

Listed compounds paired with reported EC50
- Test system: HEP-G2 cells
- assayProcedure: cells
- experimentalConditions: Homo sapiens, HepG2, 3 h, read-out: HEP-G2 EC50, HEP-G2 cells, glucose utilisation, 3 hours incubation
Answer format: numeric, nM implied, no suffix.

Answered examples (8):
Cc1c(Br)cc(C(C)(C)C)c(O)c1C(=O)Nc1cc(C(F)(F)F)cc(C(F)(F)F)c1Br; 70
Cc1ccc(C(C)C)c(C(=O)Nc2ccc([N+](=O)[O-])cc2Cl)c1O; 3000
Cc1ccc(C(C)(C)C)c(O)c1C(=O)Nc1ccc([N+](=O)[O-])cc1C(F)(F)F; 110
CC(C)(C)c1cc(C=C2C(=O)c3ccccc3C2=O)cc(C(C)(C)C)c1O; 600
CC(C)(C)c1cc(/C=C(\C#N)c2ccc([N+](=O)[O-])cc2)cc(C(C)(C)C)c1O; 310
CC(C)(C)c1cc(/C=C(\C#N)c2cc(C(F)(F)F)cc(C(F)(F)F)c2)cc(C(C)(C)C)c1O; 1000
CC(C)(C)c1cc(/C=C(\C#N)c2ccccn2)cc(C(C)(C)C)c1O; 16000
Cc1cc(C)c2[nH]cc(C=C(C#N)C#N)c2c1; 35500

// lookup EC50 for Cc1cc(C(=O)Nc2ccc([N+](=O)[O-])cc2Cl)c(O)c(C(C)(C)C)c1 600

Look up EC50 for this compound: Cc1c(Br)cc(C(C)(C)C)c(O)c1C(=O)Nc1ccc([N+](=O)[O-])cc1C(F)(F)F 30
